Data origin, for the record: PubChem BioAssay (NCATS)

# ASSAY NOTES: Viability qHTS for inhibitors of the SERCaMP assay screened against the NCATS CANVASS Library (AID 1347400); further: nearly all actives have a fitted effect of over 70% in size; further: potency means the concentration at half of the fitted maximal effect
# EXPERIMENTAL PARAMETERS: SH-SY5Y SERCaMP cells viability, CellTiter-Glo, 48 h; series mostly up to 92.2 µM
Results filed as inconclusive are left out. Active and inactive are the calls of the source. The call rests on the fitted dose curve; in most records, active means well fitted cell-killing curve with a large enough effect; inconclusive means small, poorly fitted or top-dose-only effect; inactive means flat fitted curve, though single readings scatter.
MEASURED PROPERTY: Potency

Known results for molecules:
Consider C=C[C@H]1CN2CCc3c([nH]c4cccc(OC)c34)[C@@H]2C[C@@H]1/C(=C\OC)C(=O)OC . Its measured Potency is inactive

Consider CCCC[C@@H](C)/C=C1/CN2CCC[C@H]2[C@@](C)(O)[C@@H]1O . Its measured Potency is inactive

Consider COC1=C(C2=C(OC)C(=O)c3cc4c(c(O)c3C2=O)C(=O)O[C@H](C)C4)C(=O)c2c(cc3c(c2O)C(=O)O[C@H](C)C3)C1=O . Its measured Potency is inactive

Consider CO[C@H]1[C@H](O[C@H]2CC[C@]3(C=O)[C@H]4CC[C@]5(C)[C@@H](C6=CC(=O)OC6)CC[C@]5(O)[C@@H]4CC[C@]3(O)C2)O[C@H](C)[C@H](O)[C@@H]1OC . Its measured Potency is 303 nM (active)

Consider CO[C@@H](/C=C/CC/C=C/C(=O)O)[C@@H](O)[C@H](C)/C=C(\C)[C@H](O)[C@H](C)C(=O)CCCC1CC(=O)NC(=O)C1 . Its measured Potency is inactive

More entries:
Consider CO[C@H]1C[C@H](O[C@H]2[C@@H](O)C[C@H](O[C@H]3CC[C@]4(C=O)[C@H]5CC[C@]6(C)C(C7=CC(=O)OC7)CC[C@]6(O)[C@@H]5CC[C@]4(O)C3)O[C@@H]2C)O[C@H](C)[C@H]1O[C@H]1C[C@@H](OC)[C@@H](O[C@@H]2O[C@H](CO)[C@@H](O)[C@H](O)[C@H]2O)[C@@H](C)O1 (some centres not stated) . Its measured Potency is 135 nM (active)

Consider CC[C@@H]1CN2CCC3(Nc4cccc(OC)c4C3=O)[C@@H]2C[C@@H]1/C(=C\OC)C(=O)OC (some centres not stated) . Its measured Potency is inactive

----------
# Tested on: CP305
# ASSAY NOTES: qHTS profiling for inhibitors of Plasmodium falciparum proliferation (AID 504749); further: nearly all actives have a fitted effect of over 60% in size
# EXPERIMENTAL PARAMETERS: P. falciparum in erythrocytes, SYBR Green DNA, 72 h; series mostly up to 28.7 µM
Records with an inconclusive call do not appear. The source made the active and inactive calls. Calls follow the shape of the dose curve; as a rule, active = well fitted inhibition curve with a large enough effect; inconclusive = small, poorly fitted or top-dose-only effect; inactive = flat fitted curve, though single readings scatter.
API: response.call in active, inactive

Hi, do you know how CC1=C2[C@@H]3OC(=O)[C@@H](C)[C@@H]3CC[C@]2(C)C=CC1=O came out in this test? inactive

Hi, do you know how CCC(C)C1O[C@]2(C=CC1C)CC1CC(C/C=C(\C)[C@H](OC3CC(OC)C(O[C@H]4CC(OC)[C@@H](O)C(C)O4)C(C)O3)[C@@H](C)/C=C/C=C3\COC4C(O)C(C)=C[C@H](C(=O)O1)[C@@]34O)O2 (stereo partly drawn) came out in this test? active

Lab note: next molecule to report on.
Hi, do you know how C[C@H](N)[C@@H](O)c1ccccc1 came out in this test? inactive

----------
The following compounds are listed with their measured caspase-3 activation values.
# ASSAY NOTES: Cellular Toxicity (caspase-3) Jurkat (AID 655);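 further: cells exposed to compound for 16 h at 37 °C before reading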
# EXPERIMENTAL PARAMETERS: Jurkat caspase-3 activation, luminescence, DMSO = 0%, tamoxifen = 100%; at 92.2 µM (top of the series)
Records with an inconclusive call do not appear.
Reply with just the number (in %).

Known results for compounds:
Consider CCN(CC)c1ccccc1 . Its measured caspase-3 activation is -0.552

Consider COC(=O)NC(=S)Nc1ccccc1NC(=S)NC(=O)OC . Its measured caspase-3 activation is 2.97

Consider CCCC(=O)Cl . Its measured caspase-3 activation is -0.695

Consider Cc1cccc(C#N)c1 . Its measured caspase-3 activation is 0.831

Consider CCCCCCCC(=O)Cl . Its measured caspase-3 activation is -0.927

More entries:
Consider OCC(Br)CBr (centres undefined) . Its measured caspase-3 activation is 0.101

Consider C=CCc1ccc(OC)cc1 . Its measured caspase-3 activation is 0.324

Consider Brc1ccc(Oc2cc(Br)c(Br)cc2Br)c(Br)c1 . Its measured caspase-3 activation is 17.5

Consider CC(C)(c1ccccc1)c1ccc(O)cc1 . Its measured caspase-3 activation is 11.6

Consider Clc1nc(Cl)nc(Nc2ccccc2Cl)n1 . Its measured caspase-3 activation is 0.489

Consider Clc1cc(Cl)c(-c2cc(Cl)c(Cl)cc2Cl)cc1Cl . Its measured caspase-3 activation is 0.996

----------
The following molecules are listed with their measured Potency values.
# ASSAY NOTES: Confirmatory qHTS to identify inhibitors of SARS-CoV-2 cell entry (AID 1645844); further: potency means the concentration at half of the fitted maximal effect; nearly all actives have a fitted effect of over 45% in size
# EXPERIMENTAL PARAMETERS: SARS-CoV-2 pseudotyped particle cell entry, luciferase; series mostly up to 57.2 µM
Results filed as inconclusive are left out. Activity calls are given as the source filed them. The call rests on the fitted dose curve.

Consider Cc1cc(C)c(CNC(=O)c2cc(-c3ccc(N4CCN(C)CC4)nc3)cc3c2c(C)cn3C(C)C)c(=O)[nH]1 . Its measured Potency is 27.1 µM (active)

Consider CC(CN1c2ccccc2Sc2cccnc21)N(C)C (stereo not given) . Its measured Potency is 24.1 µM (active)

Consider CC(CN1c2ccccc2Sc2ccc(S(=O)(=O)N(C)C)cc21)N(C)C (stereo not given) . Its measured Potency is 39.3 µM (active)

Query molecule follows.
Consider Nc1nc(Cl)nc2c1ncn2C1CC(O)C(CO)O1 (stereo not given) . Its measured Potency is 19.2 µM (active)

----------
# ASSAY NOTES: Primary qHTS to identify inhibitors of SARS-CoV-2 cell entry (AID 1645846); further: nearly all actives have a fitted effect of over 45% in size
# EXPERIMENTAL PARAMETERS: SARS-CoV-2 pseudovirus cell entry assay, luminescence; at 57.1 µM (top of the series) unless noted
Records with an inconclusive call do not appear.
The following compounds are listed with their measured activity change, negative = inhibition values.

Consider Cc1[nH]c2ccc(F)cc2c1-c1nc2c3cccnc3c3ncccc3c2[nH]1 . Its measured activity change, negative = inhibition is -96.1% [at 114 µM]

More entries:
Consider CONC(=O)c1ccccc1Nc1cc(Nc2cc(C)nn2C(C)C)ncc1Cl . Its measured activity change, negative = inhibition is -10.2%

Consider CC(C)NC(=O)C1CCC(n2c(NC(=O)c3ccc(F)cc3)nc3ccc(CN4CCC(C(C)(C)O)CC4)cc32)CC1 (stereo not drawn) . Its measured activity change, negative = inhibition is -10.3% [at 27.1 µM]

Consider CN1C(N)=N[C@](C)(c2cc(NC(=O)c3ccc(F)cn3)ccc2F)CS1(=O)=O . Its measured activity change, negative = inhibition is -0.893%

Consider COc1cc2c(cc1OCCCN1CCCC1)N=C(N)C21CCC1 . Its measured activity change, negative = inhibition is -8.97%

----------
# TESTED TARGET: Rap guanine nucleotide exchange factor 3 (Homo sapiens)
# ASSAY NOTES: Counterscreen qHTS for antagonist of cAMP-regulated guanine nucleotide exchange factor 3 (EPAC1) (AID 1645888);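 further: fluorescence loss as bound BODIPY-GDP is released from Rap1B; % of control where 0% means no effect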
# EXPERIMENTAL PARAMETERS: Rap1B-BODIPY-GDP nucleotide exchange, fluorescence; series mostly up to 154 µM
Records with an inconclusive call do not appear. The source made the active and inactive calls. The call rests on the fitted dose curve; in most records, active means well fitted inhibition curve with a large enough effect; inconclusive means small, poorly fitted or top-dose-only effect; inactive means no such curve, though single readings can be large or run the other way.
MEASURED PROPERTY: activity change, negative = inhibition

Known results for compounds:
Consider COc1cc(-n2c(=S)[nH]c3ccc(C)cc3c2=O)c(Cl)cc1Cl . Its measured activity change, negative = inhibition is -20.5% [at 30.8 µM] (inactive)

Consider CC1=NCCc2c1[nH]c1cc(O)ccc21 . Its measured activity change, negative = inhibition is 251% [at 30.8 µM] (inactive)

Consider Cc1ccccc1N1C(=O)NC(=O)/C(=C\c2ccc3c(c2)CCCN3Cc2ccccc2)C1=O . Its measured activity change, negative = inhibition is inactive

Consider CCOC(=O)[C@]12Cc3ccccc3[C@H]1N(C1CCCCC1)C(=O)c1cc(OC)ccc12 . Its measured activity change, negative = inhibition is inactive

More entries:
Consider COC(=O)c1cn(Cc2ccc(F)cc2)c2ccccc12 . Its measured activity change, negative = inhibition is inactive

Consider Cc1cccc(C)c1-n1nnnc1C(c1ccccc1OC(F)(F)F)N1CCC(n2c(=O)[nH]c3ccccc32)CC1 (configuration not stated) . Its measured activity change, negative = inhibition is inactive

Consider CCC(=NCCCO)c1c(O)n(-c2ccc(OC)cc2)c(=O)[nH]c1=O . Its measured activity change, negative = inhibition is -14.3% [at 30.8 µM] (inactive)

Consider NC(=O)c1ccc(N=Cc2c(O)n(Cc3ccco3)c(=O)[nH]c2=O)cc1 . Its measured activity change, negative = inhibition is inactive

Consider CCOC(=O)[C@]12Cc3cc(Cl)ccc3[C@H]1N(CC(=O)OC)C(=O)c1ccccc12 . Its measured activity change, negative = inhibition is inactive

Consider Cn1cccc1/C=C1/C(=O)NC(=O)N(Cc2ccccc2)C1=O . Its measured activity change, negative = inhibition is inactive

Consider CC(=O)C1C2c3ccccc3OC1(C)N=c1s/c(=C/c3cn(C)nc3C)c(=O)n12 (configuration not stated) . Its measured activity change, negative = inhibition is inactive

Consider COc1ccc(-n2c(O)c(/C=C/C=Nc3ccccc3)c(=O)[nH]c2=O)cc1 . Its measured activity change, negative = inhibition is inactive
